In this section, each of the compounds is paired with its reported pEC50.
Test system: NF54
Assay: parasite proliferation assay in infected red blood cells (SYBR Green I), NF54 strain
Type: cell-based
Conditions: Plasmodium falciparum, 3D7 / NF54, Erythrocyte; cell marked (NF54): NF54 strain instead of 3D7; read-out: EC50 (NF54), printed in the 3D7 strain column
pEC50: −log10 of the molar value.
Assay metric: pEC50

Compound	Target of assay	Recorded number
CC1(C)c2nc(-c3ccc(F)cc3)c(Nc3ccc(F)cc3)n2CC(=O)N1CCO [Compound 688]	NF54	6.97
Cc1ccc(S(=O)(=O)c2c(-c3ccc(F)cc3)nc3n2CCN(C(=O)CN)C3(C)C)cc1 [Compound 725]	NF54	5.28
CC1(C)c2nc(-c3ccc(F)cc3)c(Nc3ccc(F)cc3)n2CCN1C(=O)CNC(=O)CCC1=[N+]2C(=Cc3ccc(-c4ccccc4)n3[B-]2(F)F)C=C1 [Compound 731]	NF54	5.64
COc1ccc(-c2ccc3n2[B-](F)(F)[N+]2=C(C)C(CCC(=O)NCCCCCC(=O)NCC(=O)N4CCn5c(nc(-c6ccc(F)cc6)c5Nc5ccc(F)cc5)C4(C)C)=C(C)C2=C3)cc1 [Compound 732]	NF54	5.91
CC1(C)c2nc(-c3ccc(F)cc3)c(CC3CCCCC3)n2CCN1C(=O)CN [Compound 699]	NF54	6.17
CC1(C)c2nc(-c3ccc(F)cc3)c(Oc3ccc(F)c(F)c3)n2CCN1C(=O)CN [Compound 711]	NF54	7.47
Cc1cc(Oc2c(-c3ccc(F)cc3)nc3n2CCN(C(=O)CN)C3(C)C)ccc1F [Compound 712]	NF54	7.72
CC1(C)c2nc(-c3ccc(F)cc3)c(Nc3ccc(F)cc3)n2CC(=O)N1CCN [Compound 687]	NF54	5.47
CC1(C)c2nc(-c3ccc(F)cc3)c(Oc3ccc(Cl)cc3)n2CCN1C(=O)CN [Compound 710]	NF54	7.55

* * *

In this section, each of the molecules is paired with its reported EC50.
Test system: 3D7 P. falciparum strain
Assay: parasite proliferation assay in infected red blood cells (SYBR Green I)
Assay type: cell-based, Plasmodium falciparum
Conditions: 3D7 strain; read-out: EC50 3D7 strain

Molecule	Measurement unit	EC50
Cc1ccc(Nc2c(-c3ccc(F)cc3)nc3n2CCN(C(=O)C2CCNC2)C3)cc1 (stereo not drawn) [Compound 95]	µM	1.54
Cc1ccc(Nc2c(-c3ccc(F)cc3)nc3n2CCN(C(=O)C2CCCNC2)C3)cc1 (stereo not drawn) [Compound 93]	µM	1.67
Cc1ccc(Nc2c(-c3ccc(F)cc3)nc3n2CCN(C(=O)C2CCCNC2)C3)cc1 (stereo not drawn) [Compound 86]	µM	0.71
Cc1ccc(Nc2c(-c3ccc(F)cc3)nc3n2CCN(C(=O)C2CCCNC2)C3)cc1 (stereo not drawn) [Compound 92]	µM	1.3
Cc1ccc(Nc2c(-c3ccc(F)cc3)nc3n2CCN(C(=O)C2CCNC2)C3)cc1 (stereo not drawn) [Compound 96]	µM	0.58
Cc1ccc(Nc2c(-c3ccc(F)cc3)nc3n2CCN(C(=O)C2CCCNC2)C3)cc1 (stereo not drawn) [Compound 87]	µM	0.02

* * *

System: W2 strain
Assay: parasite proliferation assay in infected red blood cells (SYBR Green I), W2 strain
Type: cell-based
Assay metric: log10(EC50) (log10 of the value in µM)

Molecule	Target of assay	log10(EC50)
Cc1ccc(Nc2c(-c3ccc(F)cc3)nc3n2CCN(C(=O)C2CCCNC2)C3)cc1 (stereo not drawn) [Compound 87]	W2 strain	-1.92
Cc1ccc(Nc2c(-c3ccc(F)cc3)nc3n2CCN(C(=O)C2CCNC2)C3)cc1 (stereo not drawn) [Compound 96]	W2 strain	-0.49
Cc1ccc(Nc2c(-c3ccc(F)cc3)nc3n2CCN(C(=O)C2CCNC2)C3)cc1 (stereo not drawn) [Compound 95]	W2 strain	-0.15
Cc1ccc(Nc2c(-c3ccc(F)cc3)nc3n2CCN(C(=O)C2CCCNC2)C3)cc1 (stereo not drawn) [Compound 92]	W2 strain	0.17
Cc1ccc(Nc2c(-c3ccc(F)cc3)nc3n2CCN(C(=O)C2CCCNC2)C3)cc1 (stereo not drawn) [Compound 93]	W2 strain	0.18
Cc1ccc(Nc2c(-c3ccc(F)cc3)nc3n2CCN(C(=O)C2CCCNC2)C3)cc1 (stereo not drawn) [Compound 86]	W2 strain	-0.12
